targetDesc: Bcl-2/iso1 (Homo sapiens, UniProt P10415, DEL35-91/INS34DVEENRTEAPEGTESE/R110G/T96A)
Construct: His tag (pET28b, thrombin-cleavable) (N, cleaved yes); made in house; host or cells: E. coli BL21(DE3)
Sequence (P10415 with tags, fused parts or gaps with the stated changes): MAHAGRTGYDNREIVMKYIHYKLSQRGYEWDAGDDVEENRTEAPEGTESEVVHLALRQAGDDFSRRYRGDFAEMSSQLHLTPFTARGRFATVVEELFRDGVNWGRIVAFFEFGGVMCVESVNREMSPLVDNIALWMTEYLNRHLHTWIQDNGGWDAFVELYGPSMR
methodNotes: Competitive fluorescence polarization assay, peptide binding to Bcl-2/iso1
Experimental: A competitive fluorescence polarization assay was used to measure the affinity of various peptides for Bcl-2/iso1 (see Table 2) or Bcl-2/iso2 (see Table 3). […] All titrations were automated by means of an Abbott clinical diagnostics instrument (IMx, FPIA mode) modified with a special protocol for performing titrations. […] Twenty 1.8 uL samples were prepared without fluoresceinatedpeptide and read as blanks. […]
No end group written: not given here.
Each entry falls into one class according to its Kd; the ranges are band 1: < 60 nM; band 2: ≥ 60 nM and < 400 nM; band 3: ≥ 400 nM

seqString	assignedLabel
QRYGRELRRMSDEFVDSFKK [SEQ ID NO:35]	band 3
NLWAAQRYGRELRRMSDEFVD [SEQ ID NO:36]	band 3
NLWAGQRYGRELRRMSDEFVDSFKK [SEQ ID NO:25]	band 2
AAAAAQRYGRELRRMSDEFVDSFKK [SEQ ID NO:17]	band 2
NLPAAQRYGRELRRMSDEFVDSFKK [SEQ ID NO:31]	band 1
NLAAAQRYGRELRRMSDEFVDSFKK [SEQ ID NO:23]	band 1
NLWAAQRYGRELRRMSDEFVDSFKA [SEQ ID NO:29]	band 1
NLWAAQRYGREARRMSDEFVDSFKK [SEQ ID NO:33]	band 3
NLWGAQRYGRELRRMSDEFVDSFKK [SEQ ID NO:24]	band 2
GGGAAQRYGRELRRMSDEFVDSFKK [SEQ ID NO:30]	band 2

Ref: patent US7226992B1
